Attribution: paper PMC3517065

TEST METHOD NOTES: MTT-based cell viability assay
ASSAY CONDITIONS: human, HeLa cells
Kindly supply the reported CC50 at 72 h values for the records listed here.

QUERY: Tell me the measured CC50 at 72 h of COc1ccccc1NC(=O)c1ccccc1Oc1ccc([N+](=O)[O-])cc1 [18a] , please.
RESULT: 15 µM

QUERY: Tell me the measured CC50 at 72 h of COc1ccccc1NC(=O)c1ccccc1Sc1ccc([N+](=O)[O-])cc1 [5a (RN18)] , please.
RESULT: > 100 µM

QUERY: Tell me the measured CC50 at 72 h of O=C(Nc1cccc(CO)c1)c1ccccc1Sc1ccc([N+](=O)[O-])cc1 [15f] , please.
RESULT: > 100 µM

QUERY: Tell me the measured CC50 at 72 h of COc1ccccc1C(=O)Nc1ccccc1Oc1ccc([N+](=O)[O-])cc1 [29k] , please.
RESULT: > 100 µM

QUERY: Tell me the measured CC50 at 72 h of O=C(Cc1ccccc1F)Nc1ccccc1Sc1ccc([N+](=O)[O-])cc1 [5g] , please.
RESULT: > 100 µM

QUERY: Tell me the measured CC50 at 72 h of CC(C)(C)OC(=O)N1CCN(C(=O)c2ccccc2Sc2ccc([N+](=O)[O-])cc2)CC1 [15h] , please.
RESULT: 70 µM

QUERY: Tell me the measured CC50 at 72 h of COc1ccccc1NC(=O)c1ccccc1Oc1ccc(N)cc1 [19a] , please.
RESULT: > 100 µM

QUERY: Tell me the measured CC50 at 72 h of COc1ccccc1C(=O)Nc1ccccc1OCc1ccc([N+](=O)[O-])cc1 [40k] , please.
RESULT: > 100 µM

QUERY: Tell me the measured CC50 at 72 h of COc1ccc(Oc2ccccc2NC(=O)c2ccccc2OC)cc1 [31k] , please.
RESULT: > 100 µM

QUERY: Tell me the measured CC50 at 72 h of COc1ccccc1S(=O)(=O)Nc1ccccc1Sc1ccc([N+](=O)[O-])cc1 [5e] , please.
RESULT: > 100 µM

QUERY: Tell me the measured CC50 at 72 h of COc1ccccc1NS(=O)(=O)c1ccccc1Sc1ccc([N+](=O)[O-])cc1 [5d] , please.
RESULT: > 100 µM

QUERY: Tell me the measured CC50 at 72 h of O=C(Nc1ccccc1CO)c1ccccc1Sc1ccc([N+](=O)[O-])cc1 [15e] , please.
RESULT: > 100 µM
